# Test system: AMPK-alpha1;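 note: KINOMEscan kinase panel screen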
# Construct: gene PRKAA1
# reportedConditions: concentration: 1 μM, replicates: in singlicate; n = 1
# %Inh per record follows
Report as a plain number; the unit % is understood.

Completed entries (count: 3):
[[record]]
compound = "COc1cccc(C(=O)Nc2cccc(Oc3ccc4nc(NC(=O)C5CC5)cn4n3)c2)c1"
targetortestsystem = "AMPK-alpha1"
recordedvalue = 23

[[record]]
compound = "CN(c1ccc(NC(=O)Nc2cc(C(F)(F)F)ccc2F)cc1)c1ccnc(Nc2ccc(S(N)(=O)=O)cc2)n1"
targetortestsystem = "AMPK-alpha1"
recordedvalue = 27

[[record]]
compound = "COc1ccc(Nc2nccc(N3CCC(NC(=O)Nc4cccc(OC)c4)C3)n2)cc1 (centres unmarked)"
targetortestsystem = "AMPK-alpha1"
recordedvalue = 1


Now look at this one.
Need %Inh of `CCCCc1nn2ncccc2c1-c1ccnc(Nc2ccc(N3CCN(C)CC3)cc2)n1` , thanks.
5

Attribution: paper PMC5540273
